Kindly supply the reported TGI values for the records listed here.
System: CAKI-1 renal
METHOD: NCI tumour cell line growth inhibition, 48 h
Number in µM, nothing else.

Suppose we examine the molecule Cc1ccc(S(=O)(=O)n2c3c(c4ccccc42)CCN2CCC(Br)C[C@@H]32)cc1 (some centres undefined) ; what TGI value has been reported?
28.6

Bench note: what TGI did Nc1cc(N)c2nc(-c3ccccc3)c(NCc3ccc(F)cc3)nc2c1 show?
37.1

Entry under review: C/C=C/C=C/CCCCCCCCCCCCCC1(OC)C=CC(CC(=O)OC)OO1 (centres undefined) . Reported TGI?
3.44

Request the reported TGI associated with CCOc1ccc(NCC2CC/C(=C\c3ccc(O)cc3)C2=O)cc1 (centres undefined)
34.3

Requested read-out: TGI. Entry: O=C(COc1cccc(/C=C2\COc3ccc(Cl)cc3C2=O)c1)c1ccc(Cl)cc1
24.5

Item under review: COC(=O)C1=C(OC(=O)c2ccc(Cl)cc2)C(C(=O)OC)[C@@]2(O)[C@@H](C(=O)OC)C(c3ccccc3Cl)C[C@@H]1[C@@H]2C(=O)OC (some centres undefined) . Reported TGI?
7.35

Consider the molecule shown here: CCCCNC(=O)NS(=O)(=O)c1ccc(N2N=C(c3cc(C)ccc3C)CC2c2cc(OC)c(OC)c(OC)c2)cc1 (centres undefined) What is its recorded TGI?
12.7

What value of TGI has been recorded for this entry: CCOC(=O)c1nc(Nc2ccc(Cl)cc2)c2ccccc2n1
16.3

Given the molecule O=C1C(=C(I)I)c2ccccc2-c2ccccc21 , what is its reported TGI?
7.12

Need TGI, item O=C(OCCBr)c1ccc(Cl)c([N+](=O)[O-])c1
23.1

###

Test system: SNB-75 CNS
METHOD: NCI tumour cell line growth inhibition, 48 h
Use YES when the recorded TGI is no lower than 30 µM; use NO when it is lower.

Is TGI at least 30 µM? Consider O=C1[C@@H]2C[C@@H](O)CN2C(=O)c2ccccc2N1CCCO
YES

Identify whether the reported TGI of the following compound is 30 µM or greater: CS/C(C)=N/OC(=O)NCCCCNc1ccc(N=[N+]=[N-])cc1
YES

Entry COC(=O)C1=C(CCCCO[Si](C)(C)C(C)(C)C)NC(=O)N2[C@@H](CCOCc3ccccc3)CC[C@H]12 : is its TGI no less than 30 µM?
YES

Could you tell me if the measured TGI of CCOC(=O)C1=C(Nc2cccc3ccccc23)OC/C1=N\NC(=O)c1ccccc1O reaches 30 µM or more?
YES

Is TGI at least 30 µM? Consider Nc1cc(N)c2nc(-c3ccccc3)c(NCc3ccc(F)cc3)nc2c1
NO

Kindly determine if TGI recorded for COc1ccc(-c2c3c(nc4nc(SC)nc(SC)c24)CCCC3)cc1OC is above or exactly 30 µM.
YES

Reported TGI reaches at least 30 µM for O=C(N/N=C/c1cc([N+](=O)[O-])ccc1O)c1cccc2ccccc12 ?
YES

Threshold query (TGI >= 30 µM) on Cc1cc2nc(-c3c(F)cccc3F)n(Cc3c(F)cccc3F)c2cc1C
NO

State whether the measured TGI reaches 30 µM, counting equality as reaching it, for COc1cc(C2CC(c3ccc(N(C)C)cc3)=NN2C(C)=O)cc(OC)c1OC (stereo not given)
YES

Say whether CC(=O)O[C@H]1CC[C@@]2(C)[C@@H](CC[C@@H]3[C@@H]2CC[C@]2(C)C=C(C=O)C[C@@H]32)C1 shows TGI of 30 µM or more.
NO

Please indicate if the recorded TGI for CC1OC1C(=O)C1(O)C(C)C(O)C23OC2(C(O)c2c(O)cccc2C3=O)C1O (stereo not given) meets or exceeds 30 µM.
NO

Does Oc1ccc(/C=C/c2ccc3cccc(O)c3n2)cc1O have a reported TGI of at least 30 µM?
NO

Does the reported TGI for C/C=C/C=C/CCCCCCCCCCCCCC1(OC)C=CC(CC(=O)OC)OO1 (stereo not given) fall at or above the 30 µM mark?
NO

Determine whether measured TGI meets or exceeds 30 µM for CCN1C(=O)N(CC)C2C1NN=c1s/c(=C\c3cc4ccccc4[nH]3)c(=O)n12 (stereo not given)
NO

Could you please find out whether CCOC(=O)/C=C(\C(=O)OCC)n1ccc(=O)n(CC(=O)OCC)c1=O has TGI that meets 30 µM or exceeds it?
NO

Is reported TGI greater than or equal to 30 µM here: CCC(=O)N(O)C(C)(C)C
YES

Could you please find out whether Cc1n[nH]c(=O)n1/N=C\CC/C=N\n1c(C)n[nH]c1=O has TGI that meets 30 µM or exceeds it?
YES

Can CCC1CCc2c(OC)ccc(OCC(=O)O)c2C1=O (stereo not given) be said to have TGI at or above 30 µM?
YES

Confirm if TGI reported for the compound CCCOC(=O)CCn1c(SC)nc2[nH]cc(-c3ccccc3)c2c1=O is 30 µM or above.
YES

Textbook exercise: given the entry COc1cc(C(=O)/C=C/c2cccnc2Nc2ccccc2)cc(OC)c1OC , state whether its TGI is greater than or equal to 30 µM.
NO

Check the entry CCOc1ccc(NCC2CC/C(=C\c3ccc(O)cc3)C2=O)cc1 (stereo not given) : does TGI equal or exceed 30 µM?
NO

State whether the measured TGI reaches 30 µM, counting equality as reaching it, for N.N.NCCCCCCN.O=C([O-])CC(=O)[O-].O=C([O-])CC(=O)[O-].[Pt+4].[Pt+4]
YES

# bool: TGI of O=c1oc(-c2ccccc2)c(-c2ccccc2)n1-c1ccc(Br)cc1 >= 30 µM
YES
